Listed next: entries and their corresponding MIC90.
# Test system: Bacteroides ovatus
# Procedure Text: Antibacterial activity against Bacteroides ovatus isolated from patient with diabetic foot infection after 44 to 48 hrs by agar dilution method
# Format: functional
Result Type: MIC90 (µg/mL)

| Molecule | System Name | Value Qualifier | Observed Measurement |
| --- | --- | --- | --- |
| CCC[C@@H]1C[C@@H](C(=O)N[C@@H]([C@H]2O[C@H](SC)[C@H](O)[C@@H](O)[C@H]2O)[C@H](C)Cl)N(C)C1 | Bacteroides ovatus | > | 64 |
| C[C@@H](O)[C@H]1C(=O)N2C(C(=O)O)=C(S[C@@H]3CN[C@H](CNS(N)(=O)=O)C3)[C@H](C)[C@H]12 | Bacteroides ovatus | = | 1 |
| C[C@@H](O)[C@H]1C(=O)N2C(C(=O)O)=C(S[C@@H]3CN[C@H](C(=O)N(C)C)C3)[C@H](C)[C@H]12 | Bacteroides ovatus | = | 1 |
| Cc1ncc([N+](=O)[O-])n1CCO | Bacteroides ovatus | = | 1 |
| C[C@@H](O)[C@H]1C(=O)N2C(C(=O)O)=C(S[C@@H]3CN[C@H](C(=O)Nc4cccc(C(=O)O)c4)C3)[C@H](C)[C@H]12 | Bacteroides ovatus | = | 2 |
| C[C@@H](O)[C@H]1C(=O)N2C(C(=O)O)=C(SCCNC=N)C[C@H]12 [IMIPENEM ANHYDROUS] | Bacteroides ovatus | = | 1 |

###

# Test system: Proteus mirabilis
# Procedure Text: Antibacterial activity against Proteus mirabilis isolated from patient with diabetic foot infection after 18 to 24 hrs by broth microdilution method
# Type: functional

| Compound | MIC90 (µg/mL) |
| --- | --- |
| C[C@@H](O)[C@H]1C(=O)N2C(C(=O)O)=C(SCCNC=N)C[C@H]12 [IMIPENEM ANHYDROUS] | 4 |
| C[C@@H](O)[C@H]1C(=O)N2C(C(=O)O)=C(S[C@@H]3CN[C@H](CNS(N)(=O)=O)C3)[C@H](C)[C@H]12 [DORIPENEM] | 0.25 |
| C[C@@H](O)[C@H]1C(=O)N2C(C(=O)O)=C(S[C@@H]3CN[C@H](C(=O)N(C)C)C3)[C@H](C)[C@H]12 [MEROPENEM] | 0.125 |
| C[C@@H](O)[C@H]1C(=O)N2C(C(=O)O)=C(S[C@@H]3CN[C@H](C(=O)Nc4cccc(C(=O)O)c4)C3)[C@H](C)[C@H]12 [ERTAPENEM] | 0.25 |

###

Listed next: entries and their corresponding Activity.
# Test system: Anaerococcus prevotii
# Procedure Text: Antibacterial activity against Anaerococcus prevotii isolated from patient with diabetic foot infection assessed as percent resistant isolates after 44 to 48 hrs by agar dilution method
# Assay type: functional

| Compound | System Name | Activity / % |
| --- | --- | --- |
| Cc1ncc([N+](=O)[O-])n1CCO | Anaerococcus prevotii | 0 |
| C[C@@H](O)[C@H]1C(=O)N2C(C(=O)O)=C(SCCNC=N)C[C@H]12 [IMIPENEM ANHYDROUS] | Anaerococcus prevotii | 0 |
| CCC[C@@H]1C[C@@H](C(=O)N[C@@H]([C@H]2O[C@H](SC)[C@H](O)[C@@H](O)[C@H]2O)[C@H](C)Cl)N(C)C1 | Anaerococcus prevotii | 18 |
| C[C@@H](O)[C@H]1C(=O)N2C(C(=O)O)=C(S[C@@H]3CN[C@H](CNS(N)(=O)=O)C3)[C@H](C)[C@H]12 | Anaerococcus prevotii | 0 |
| C[C@@H](O)[C@H]1C(=O)N2C(C(=O)O)=C(S[C@@H]3CN[C@H](C(=O)Nc4cccc(C(=O)O)c4)C3)[C@H](C)[C@H]12 | Anaerococcus prevotii | 0 |
| C[C@@H](O)[C@H]1C(=O)N2C(C(=O)O)=C(S[C@@H]3CN[C@H](C(=O)N(C)C)C3)[C@H](C)[C@H]12 | Anaerococcus prevotii | 0 |
